Consider the following compounds; for each one, report its Kp.
test: In vivo pharmacokinetic study in rats, whole lung (IV and PO); conditions: male, Sprague-Dawley, rat, lung/plasma, iv, 5 mg/kg; read-out: L/P ratio, IV

## Input What does the data say about its Kp? Entry: C=C[C@]12OC(=O)N(CCCCn3cnc(-c4ccc(C)nc4)c3)[C@@H]1[C@@H](C)C(=O)[C@H](C)C[C@](C)(OC)[C@H](OC1O[C@H](C)C[C@H](N(C)C)[C@H]1O)[C@@H](C)C(=O)[C@@H](C)C(=O)O[C@@H]2CC (stereo partly drawn) [XVI]
## Output 80

## Input What Kp value was documented for this compound, CC[C@H]1OC(=O)[C@H](C)C(=O)[C@H](C)[C@@H](O[C@@H]2O[C@H](C)C[C@H](N(C)C)[C@H]2O)[C@](C)(OC)C[C@@H](C)C(=O)[C@H](C)[C@H]2N(CCCCn3cnc(-c4cccnc4)c3)C(=O)O[C@]12C [Telithromycin, telithromycin, reference compound] ?
## Output 16

## Input Would you kindly share the measured Kp for C=C[C@]12OC(=O)N(CCCCn3cnc(-c4cnccc4Cl)c3)[C@@H]1[C@@H](C)C(=O)[C@H](C)C[C@](C)(OC)[C@H](OC1O[C@H](C)C[C@H](N(C)C)[C@H]1O)[C@@H](C)C(=O)[C@@H](C)C(=O)O[C@@H]2CC (stereo partly drawn) [XXX] ?
## Output 75

## Input // query Kp value for entry C=C[C@]12OC(=O)N(CCCCn3cnc(-c4ccc(Cl)nc4)c3)[C@@H]1[C@@H](C)C(=O)[C@H](C)C[C@](C)(OC)[C@H](OC1O[C@H](C)C[C@H](N(C)C)[C@H]1O)[C@@H](C)C(=O)[C@@H](C)C(=O)O[C@@H]2CC (stereo partly drawn) [XX]
## Output 94

## Input Consider the compound CC[C@H]1OC(=O)[C@@](C)(F)C(=O)[C@H](C)[C@@H](OC2O[C@H](C)C[C@H](N(C)C)[C@H]2O)[C@@](C)(OC)C[C@@H](C)C(=O)[C@H](C)[C@H]2N(CCCCn3cnc(-c4ccc(C)nc4)c3)C(=O)O[C@]12CC (stereo partly drawn) [XIV] and give its measured Kp.
## Output 83

## Input Recorded Kp for C=C[C@]12OC(=O)N(CCCCn3cnc(-c4ccc(OC)nc4)c3)[C@@H]1[C@@H](C)C(=O)[C@H](C)C[C@](C)(OC)[C@H](OC1O[C@H](C)C[C@H](N(C)C)[C@H]1O)[C@@H](C)C(=O)[C@@H](C)C(=O)O[C@@H]2CC (stereo partly drawn) [XVIII] , please?
## Output 110
